B1: 1ZHC (parent)
chain: HEFRDEISVLKANNPHFDKIFEKHNQLDDDIKTAEQQNASDAEVSHMKKQKLKLKDEIHSMIIEYREK

Variants of: B1
Test: folding stability dG (cDNA display proteolysis); higher = more stable
Conditions: PBS, room temperature
Documented folding stability dG across a set of variants
Just the number please, in kJ/mol, no unit attached.

Consider the reported folding stability dG for these variants:
>>> endpoint_result("Q50C")
4.69
>>> endpoint_result("H59I")
7.67
>>> endpoint_result("S45R")
3.65
>>> endpoint_result("H59T")
4.43

Ask | Find the recorded folding stability dG belonging to I63S and report it.
Reply | 0.331

Ask | Find the recorded folding stability dG belonging to D18S and report it.
Reply | 6.54

Ask | Find the recorded folding stability dG belonging to E2R and report it.
Reply | 4.98

Ask | Find the recorded folding stability dG belonging to M61A and report it.
Reply | -4.17

Ask | Find the recorded folding stability dG belonging to V9A and report it.
Reply | 4.84

Ask | Find the recorded folding stability dG belonging to K68G and report it.
Reply | 2.07

Ask | Find the recorded folding stability dG belonging to D18N and report it.
Reply | 7.27

Values from the MegaScale stability set (Tsuboyama et al. 2023)
